// provenance: patent EP4670717A1

Some molecules, each annotated with its measured IC50.
Target: IDO1 (Homo sapiens)
Construct: BxPC3 cells were seeded in phenol red-free RPMI 1640 medium; endogenous in cells; host or cells: BxPC3 cells stimulated with IFN-γ (50 ng/mL)
Sequence (P14902 whole entry): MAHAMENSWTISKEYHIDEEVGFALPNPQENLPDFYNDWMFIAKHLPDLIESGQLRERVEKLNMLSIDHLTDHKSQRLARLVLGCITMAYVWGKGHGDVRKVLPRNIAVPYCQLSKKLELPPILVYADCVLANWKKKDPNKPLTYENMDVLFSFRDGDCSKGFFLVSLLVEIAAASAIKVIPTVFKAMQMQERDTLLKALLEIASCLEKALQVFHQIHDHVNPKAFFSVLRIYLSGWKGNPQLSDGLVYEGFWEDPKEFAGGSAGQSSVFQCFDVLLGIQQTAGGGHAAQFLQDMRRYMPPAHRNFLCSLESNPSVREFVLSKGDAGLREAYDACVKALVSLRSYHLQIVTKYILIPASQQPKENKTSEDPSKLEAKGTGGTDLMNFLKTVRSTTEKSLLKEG
Assay: Kyn assay in BxPC-3 cells (Kyn levels after IFN-γ and Trp);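 note: kyn levels expressed relative to DMSO-treated control cells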
Assay type: cell-based
Conditions: BxPC-3 cells incubated with IFN-γ, Trp and the compounds for 48 h; read-out: Kyn assay IC50 ± SD

Solved cases (5 shown):
{"Item Smiles": "COc1ccc(NC(=O)OC[C@]23CN(S(=O)(=O)c4ccc(C(C)(C)C)cc4)C[C@H]2C[C@H]2C[C@@H]3C2(C)C)cc1", "IC50": "1000 to 5000 nM"}
{"Item Smiles": "CC1(C)CCC(C)(C)c2cc(S(=O)(=O)N3C[C@H]4C[C@H]5C[C@H](C5(C)C)[C@@]4(COC(=O)Nc4ccc(I)cc4)C3)ccc21", "IC50": "200 to 1000 nM"}
{"Item Smiles": "CC(C)(CC(=O)O)c1ccc(S(=O)(=O)N2C[C@H]3C[C@H]4C[C@H](C4(C)C)[C@@]3(COC(=O)Nc3ccc(I)cc3)C2)cc1", "IC50": "< 200 nM"}
{"Item Smiles": "CC(C)(C)c1ccc(S(=O)(=O)N2C[C@H]3C[C@H]4C[C@H](C4(C)C)[C@@]3(COC(=O)Nc3ccccc3I)C2)cc1", "IC50": "200 to 1000 nM"}
{"Item Smiles": "CC(C)(C)c1ccc(S(=O)(=O)N2C[C@H]3C[C@H]4C[C@H](C4(C)C)[C@@]3(COC(=O)Nc3ccccc3Br)C2)cc1", "IC50": "200 to 1000 nM"}

Asked: Would you mind telling me what IC50 value was observed for CCC(C)(C)c1ccc(S(=O)(=O)N2C[C@H]3C[C@H]4C[C@H](C4(C)C)[C@@]3(COC(=O)Nc3ccc(I)cc3)C2)cc1 ?
Given back: < 200 nM

Asked: Also, CC(C)(C)c1ccc(S(=O)(=O)N2C[C@H]3C[C@H]4C[C@H](C4(C)C)[C@@]3(COC(=O)Nc3ccc(I)cc3)C2)c(Br)c1 please.
Given back: < 200 nM

Asked: Quick one: CC(C)(C(=O)O)c1ccc(S(=O)(=O)N2C[C@H]3C[C@H]4C[C@H](C4(C)C)[C@@]3(COC(=O)Nc3ccc(I)cc3)C2)c(Cl)c1
Given back: < 200 nM

Asked: Would you kindly repeat that for Cc1ccc(NC(=O)OC[C@]23CN(S(=O)(=O)c4ccc(C(F)(F)F)cc4)C[C@H]2C[C@H]2C[C@@H]3C2(C)C)cc1 ?
Given back: 1000 to 5000 nM

Asked: Item: COC(=O)C(C)(C)c1ccc(S(=O)(=O)N2C[C@H]3C[C@H]4C[C@H](C4(C)C)[C@@]3(COC(=O)Nc3ccc(I)cc3)C2)c(Cl)c1
Given back: < 200 nM

Asked: // same read-out, input: COc1cc(C(C)(C)C)ccc1S(=O)(=O)N1C[C@H]2C[C@H]3C[C@H](C3(C)C)[C@@]2(COC(=O)Nc2ccc(I)cc2)C1
Given back: < 200 nM

Asked: Lookup COC(=O)CC(C)(C)c1ccc(S(=O)(=O)N2C[C@H]3C[C@H]4C[C@H](C4(C)C)[C@@]3(COC(=O)Nc3ccc(I)cc3)C2)cc1
Given back: < 200 nM

Asked: Then this molecule: Cc1cc(C(C)(C)C)ccc1S(=O)(=O)N1C[C@H]2C[C@H]3C[C@H](C3(C)C)[C@@]2(COC(=O)Nc2ccc(I)cc2)C1
Given back: < 200 nM

Asked: Request: CC(C)(C(=O)O)c1ccc(S(=O)(=O)N2C[C@H]3C[C@H]4C[C@H](C4(C)C)[C@@]3(COC(=O)Nc3ccc(I)cc3)C2)cc1
Given back: < 200 nM
